- Tested On: Aldehyde dehydrogenase, mitochondrial (Mesocricetus auratus)
- Assay Explanation: Inhibition of hamster liver aldehyde dehydrogenase ALDH-2
pIC50: −log10 of the molar value.
Measure Name: pIC50

O=c1c(-c2ccc(O)cc2)coc2cc(OCCCCCCO)ccc12	6.92

I: CC(C)Oc1ccc2c(=O)c(-c3ccc(O)cc3)coc2c1
II: CCCCC(Oc1ccc2c(=O)c(-c3ccc(O)cc3)coc2c1)C(=O)OCC (centres undefined)
## Task Please indicate which has the smaller reported pIC50: I , or II . Refer to your chosen item by its label in the answer.
## Result II
(II: 5.35, I: 7.10)

* * *

- Tested On: Aldehyde dehydrogenase, mitochondrial (Mesocricetus auratus)
- Assay Explanation: Inhibition of hamster liver aldehyde dehydrogenase ALDH-2
Measure Name: IC50 (nM)

Example molecules with recorded IC50:
CCCCCCOc1ccc2c(=O)c(-c3ccc(O)cc3)coc2c1	1500
O=C(O)CCCCCCCCCCCOc1ccc2c(=O)c(-c3ccc(O)cc3)coc2c1	130
CC1=C(c2ccccc2)C(=O)OC2CC(Cl)CCC12 (stereo not drawn)	150
O=C(O)CCCCCCCOc1ccc2c(=O)c(-c3ccc(O)cc3)coc2c1	40
CC(Oc1ccc2c(=O)c(-c3ccc(O)cc3)coc2c1)C(=O)O (stereo not drawn)	2500
CCOc1ccc2c(=O)c(-c3ccc(O)cc3)coc2c1	80

A: O=C(O)CCCCOc1ccc2c(=O)c(-c3ccc(O)cc3)coc2c1
B: O=C(O)COc1ccc2c(=O)c(-c3ccc(O)cc3)coc2c1
## Task Determine, for A and B , which has the greater value of IC50. Refer to your chosen item by its label in the answer.
## Result B
(B: 1200 nM, A: 100 nM)

1: CCOC(=O)COc1ccc2c(=O)c(-c3ccc(O)cc3)coc2c1
2: O=c1c(-c2ccc(O)cc2)coc2cc(OCCCCCCCCCCCCO)ccc12
3: O=c1c(-c2ccc(O)cc2)coc2cc(OCCCCCCCCCO)ccc12
4: O=c1c(-c2ccc(O)cc2)coc2cc(OCCOCCOCCO)ccc12
## Task Parameters: sort_field (IC50), sort_dir (desc). Note for the reader: the ranking is given by listing the labels in the order requested.
## Result 2, 3, 1, 4

1: O=C(O)CCCCCCOc1ccc2c(=O)c(-c3ccc(O)cc3)coc2c1
2: NCCCCCCOc1ccc2c(=O)c(-c3ccc(O)cc3)coc2c1
## Task Please indicate which has the smaller reported IC50: 1 , or 2 . Refer to your chosen item by its label in the answer.
## Result 1

The reported numbers originate from BindingDB's records for doi:10.1021/jm0101390.
